# PROCEDURE_TEXT: In vitro enzyme assay to detect hydrolysis of chlorophenol red-beta-D-[…] directly proportional to the number of Toxoplasma stably expressing beta-galactosidase
# Assay type: functional, organism-based, Toxoplasma gondii
# Parameters: scale not given: in the data most compounds retested in dose-response had high values
# TEST_CONDITIONS: 50 µM
About 440 (0.52%) of roughly 85,000 compounds showed an effect of 50% or more. Shown is part of a subset that was picked to be rich in strong results.
METRIC_NAME: Percent Effect (%)

* O=C(NC1CN(c2ccc(C(F)(F)F)cn2)C1)C1CC1 | -14.77
* NC(=O)C[C@@H](N)c1ccc(Cl)cc1 | 0.4297
* Nc1ncccc1CN1CCN(C2CCOCC2)CC1 | 4.597
* CC(=O)Nc1cc(S(=O)(=O)NCCN(C)C)ccc1C | 12.19
* O=C1c2ccc(F)cc2C(=O)N1Cc1nnsc1Cl | 52.75
* NC(=O)CC1CCCCN1c1ccc(C(F)(F)F)cn1 (stereo not given) | -10.18
* O=C(NCCOCCO)c1cn2ccsc2n1 | 19.68
* CCN1C[C@H](NC(=O)c2cccn2C(C)C)[C@@H](OC)C1 | -5.083
* Cc1cc(NC(=O)NCCN2CCC(C)CC2)n(C)n1 | -15.44
* NCc1ccc(N2CCS(=O)(=O)CC2)cc1 | 2.889
* NCCNc1ccc2ccccc2n1 | -5.159
* COCC(C)(CCO)NCc1c(C)noc1C (stereo not given) | -23.44
* Cn1nc(-c2nc(C(C)(C)C)no2)ccc1=O | 3.371
* N#Cc1ccc(N2CCCC2C(=O)NC2CC2)cn1 (stereo not given) | 0.7704
* NC(=O)CCSc1nc2ncccn2n1 | -6.184
* NC(=O)C[C@H](N)c1ccccc1 | 8.251
* CC(C)(C)NCC(=O)Nc1ccc(Cl)cn1 | -9.06
* CN(C)CCC1CN(C(=O)CCc2cccs2)CCO1 (stereo not given) | -11.11
* CC(CC(=O)NCCCS(N)(=O)=O)c1cccc(F)c1 (stereo not given) | 3.903
* CCN1C[C@H](NC(=O)c2ccc(Cl)s2)[C@@H](OC)C1 | 2.981

* * *

# PROCEDURE_TEXT: In vitro enzyme assay to detect hydrolysis of chlorophenol red-beta-D-[…] directly proportional to the number of Toxoplasma stably expressing beta-galactosidase
# Type: functional, organism-based, Toxoplasma gondii
# Set-up: scale not given: in the data most compounds retested in dose-response had high values
# TEST_CONDITIONS: 50 µM
The campaign covered roughly 85,000 compounds. About 440 (0.52%) showed an effect of 50% or more. For the sample, strong results were picked, then their nearest neighbours and some compounds at random.
As shown below, each of these molecules has a reported Percent Effect value.
METRIC_NAME: Percent Effect (%)

• CC[C@H](N)C(=O)N(C)CCOc1cccc(Cl)c1 = 33.07
• N#Cc1ccc(-n2nccc2N)cc1 = 92.39
• COc1ccc(CNC(=O)CN)cc1 = -16.08
• CSCC(CCO)NC(=O)Nc1cccc(F)c1 (stereo not drawn) = -3.551
• COc1ccc(OC)c(NC(=O)N2CC(C)(OC)C2)c1 = 3.541
• NC(=O)CN1CCCN(C(=O)c2sccc2Br)CC1 = 2.336
• CNC1CCN(c2cc(OC)cc(OC)c2)C1 (stereo not drawn) = -16.53
• CCC(CC)NC(=O)CSc1nnc(N)n1C = -0.697
• CC(NC(=O)c1ccc(Br)cc1)C(=O)N1CCOCC1 (stereo not drawn) = -8.67
• O=C(NCCN1CCCC1)Nc1cccc2cn[nH]c12 = -2.677
• CC(C)CCN1CCN(C(=O)c2nccnc2N)CC1 = 0.2706
• CN(C)c1cc(CNC(=O)c2ccncc2)ccn1 = -1.688
• CCN1CCN(S(=O)(=O)c2c(F)cccc2F)CC1 = -8.353
• Cc1ccc(F)c(NC(=O)N2CCOCC2CO)c1 (stereo not drawn) = 2.099
• Cc1cnc(N)nc1NCC(O)CN1CCCCC1 (stereo not drawn) = 10.92
• Cc1c(N)cnn1C1CCOCC1 = -9.55
• CCCc1ccc(CN2CCC(NC(C)=O)C2)o1 (stereo not drawn) = 2.217
• CC(C(N)=O)N1CCN(C(=O)c2ccc(Br)cc2)CC1 (stereo not drawn) = 3.88
